These entries and their values trace back to patent US20240182561A1.

# experimental system: T1, mouse CACNG1 expressed on cells (mouse, UniProt O70578 1-223)
# T1 sequence (looked up): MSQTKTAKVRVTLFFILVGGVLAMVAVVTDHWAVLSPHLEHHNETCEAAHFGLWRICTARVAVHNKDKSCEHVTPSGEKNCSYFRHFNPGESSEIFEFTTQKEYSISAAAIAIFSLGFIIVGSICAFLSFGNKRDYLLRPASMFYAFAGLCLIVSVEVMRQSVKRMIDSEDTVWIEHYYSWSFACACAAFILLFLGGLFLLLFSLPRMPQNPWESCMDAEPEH
# assay summary: cell-based or functional assay
reported property: EC50/IC50, indirect cell killing, HEK293/mCACNG1

-- ask Quickly give me recorded EC50/IC50, indirect cell killing, HEK293/mCACNG1 for H2aM31941N (antibody, mouse IgG1, kappa, V domains shown, Both names are treated as one molecule; also called H1M31941N; lot H1M31941N-L1) VH: QVQLVQSGAEVKKPGASVKVSCKASGYAFTTYGITWVRQAPGQGLEWMGWISAYNGNTNYAEKVQGRFTMTTDTSTNTAYMELRSLRSDDTAVYFCARKGHYGSGTYYNPFGFDFWGQGTMVTVSS VL: EIMLMQSPGTLSLSPGERATLSCRASQSVSSSYLAWYQQKPGQAPRLLIYGASSRATDIPDRFSGSGSGTDFTLTISRLEPEDFAVYFCQQYYGSPWTFGQGTKVEIKR
-- reply > 1 nM
